Experimental System: UniProt Q9NR97
Sequence (Q9NR97 27-1041): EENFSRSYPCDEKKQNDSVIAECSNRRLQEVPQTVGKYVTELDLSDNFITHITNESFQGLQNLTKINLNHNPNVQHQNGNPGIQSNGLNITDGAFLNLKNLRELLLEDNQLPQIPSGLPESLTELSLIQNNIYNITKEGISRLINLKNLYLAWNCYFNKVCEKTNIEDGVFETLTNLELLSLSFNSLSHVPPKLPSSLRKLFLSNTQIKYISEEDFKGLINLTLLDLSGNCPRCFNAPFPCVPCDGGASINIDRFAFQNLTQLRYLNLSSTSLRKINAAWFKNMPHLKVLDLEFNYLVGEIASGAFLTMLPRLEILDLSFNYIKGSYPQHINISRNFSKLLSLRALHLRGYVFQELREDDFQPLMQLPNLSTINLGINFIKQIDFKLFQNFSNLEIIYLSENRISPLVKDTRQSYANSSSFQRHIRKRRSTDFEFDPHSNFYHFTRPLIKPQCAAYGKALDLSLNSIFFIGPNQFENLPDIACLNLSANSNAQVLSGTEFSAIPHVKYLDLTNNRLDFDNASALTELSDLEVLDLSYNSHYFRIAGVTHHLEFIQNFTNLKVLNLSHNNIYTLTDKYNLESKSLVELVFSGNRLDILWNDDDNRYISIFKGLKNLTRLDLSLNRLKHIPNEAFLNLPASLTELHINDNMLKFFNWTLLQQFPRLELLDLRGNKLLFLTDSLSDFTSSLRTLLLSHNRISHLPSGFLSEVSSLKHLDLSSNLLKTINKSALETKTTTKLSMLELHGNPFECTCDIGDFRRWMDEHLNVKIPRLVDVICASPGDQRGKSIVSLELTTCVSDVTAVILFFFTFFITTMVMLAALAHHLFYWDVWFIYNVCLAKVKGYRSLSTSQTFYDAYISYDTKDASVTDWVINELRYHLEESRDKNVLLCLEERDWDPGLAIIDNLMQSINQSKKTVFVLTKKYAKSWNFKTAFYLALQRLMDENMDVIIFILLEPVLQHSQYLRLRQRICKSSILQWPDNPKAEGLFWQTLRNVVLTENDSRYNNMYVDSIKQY
Procedure Details: TLR8 inhibition reporter assay (HEK-Blue cells, SEAP reporter, R848 stimulation)
Details: HEK-Blue cells overexpressing human TLR8, SEAP reporter, R848 15.9 μM
Listed below: IC50 values for each entry.

Solved cases below.
CC(C)c1c(-c2cn(C)c3ncccc23)[nH]c2ccc(C3CCN(C(=O)CN(C)C)CC3)cc12 : < 0.1 µM
Cc1c(-c2[nH]c3ccc(C4CCN(C(=O)CN(C)C)CC4)cc3c2C(C)C)cn2ccnc2c1C : < 0.1 µM
CC(C)c1c(-c2cnc3ccnn3c2)[nH]c2ccc(C3CCN(C(C)C)CC3)cc12 : > 3.13 µM

Now for another entry.
Exercise: State its IC50: `CC(C)c1c(-c2ccc3nccn3c2)[nH]c2ccc(C3CCN(C4CCN(C(C)C)CC4)CC3)cc12`
Key: < 0.1 µM

* * *

Experimental System: human TLR7 (Homo sapiens, UniProt Q9NYK1)
Procedure Details: TLR7 inhibition reporter assay (HEK-Blue cells, SEAP reporter, gardiquimod stimulation)
Details: HEK-Blue cells overexpressing human TLR7, SEAP reporter, gardiquimod 7.5 μM
pIC50: −log10 of the molar value.
Property Label: pIC50

CCc1c(-c2ncnc3[nH]ccc23)[nH]c2ccc(C3CCNCC3)cc12 [Example 206] : 6.00 to 7.00

Exercise: State its pIC50: CNC(=O)CN1CCC(c2ccc3[nH]c(-c4cnc5nn(C)cc5c4)c(C(C)C)c3c2)CC1 [Example 368]
Key: 4.30 to 6.00

* * *

Listed below: IC50 values for each entry.
Experimental System: human TLR7 (Homo sapiens)
Sequence (Q9NYK1 27-1049): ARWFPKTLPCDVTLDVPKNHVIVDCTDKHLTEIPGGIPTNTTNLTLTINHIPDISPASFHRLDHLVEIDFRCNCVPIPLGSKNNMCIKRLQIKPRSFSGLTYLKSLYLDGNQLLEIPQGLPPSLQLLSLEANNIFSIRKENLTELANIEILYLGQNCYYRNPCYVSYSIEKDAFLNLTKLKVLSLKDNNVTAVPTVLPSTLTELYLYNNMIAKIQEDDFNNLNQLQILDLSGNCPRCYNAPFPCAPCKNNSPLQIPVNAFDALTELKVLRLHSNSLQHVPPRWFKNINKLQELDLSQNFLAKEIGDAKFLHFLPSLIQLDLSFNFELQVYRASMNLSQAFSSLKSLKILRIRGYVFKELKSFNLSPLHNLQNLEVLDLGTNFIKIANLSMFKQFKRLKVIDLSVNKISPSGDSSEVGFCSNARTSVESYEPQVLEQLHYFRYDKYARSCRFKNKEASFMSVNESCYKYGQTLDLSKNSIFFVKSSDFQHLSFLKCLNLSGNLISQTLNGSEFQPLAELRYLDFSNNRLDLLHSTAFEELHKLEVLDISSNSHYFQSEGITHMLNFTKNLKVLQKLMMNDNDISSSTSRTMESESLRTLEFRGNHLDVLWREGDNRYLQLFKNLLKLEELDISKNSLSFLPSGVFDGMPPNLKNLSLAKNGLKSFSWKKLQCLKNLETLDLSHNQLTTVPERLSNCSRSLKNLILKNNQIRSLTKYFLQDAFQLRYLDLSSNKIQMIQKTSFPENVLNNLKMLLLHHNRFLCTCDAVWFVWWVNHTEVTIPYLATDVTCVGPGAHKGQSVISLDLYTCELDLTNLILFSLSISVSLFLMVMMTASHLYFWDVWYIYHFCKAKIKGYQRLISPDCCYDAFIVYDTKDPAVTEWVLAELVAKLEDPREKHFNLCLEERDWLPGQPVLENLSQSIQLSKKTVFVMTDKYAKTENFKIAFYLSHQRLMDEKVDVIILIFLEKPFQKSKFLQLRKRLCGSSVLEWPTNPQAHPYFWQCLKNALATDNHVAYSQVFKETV
Procedure Details: TLR7 inhibition reporter assay (HEK-Blue cells, SEAP reporter, gardiquimod stimulation)
Details: HEK-Blue cells overexpressing human TLR7, SEAP reporter, gardiquimod 7.5 μM

CCc1c(-c2ccnc3[nH]nc(CC)c23)[nH]c2ccc(C3CCNCC3)cc12 : 100 to 1000 nM
Cc1c(-c2ccnc3[nH]ccc23)[nH]c2ccc(C3CCN(C4CCN(C(C)C)CC4)CC3)cc12 : < 100 nM
Cc1cc(-c2[nH]c3ccc(C4CCN(C(=O)CCN(C)C)CC4)cc3c2C(C)C)cn2nnnc12 : < 100 nM

Now for another entry.
Exercise: State its IC50: `CCc1c(-c2ccc3nccn3c2)[nH]c2cc(F)c(C3CCNCC3)c(F)c12`
Key: < 100 nM

* * *

Experimental System: human TLR7 (Homo sapiens)
Procedure Details: TLR7 inhibition reporter assay (HEK-Blue cells, SEAP reporter, gardiquimod stimulation)
Details: HEK-Blue cells overexpressing human TLR7, SEAP reporter, gardiquimod 7.5 μM
pIC50: −log10 of the molar value.
Property Label: pIC50

CNC(=O)CN1CCC(c2ccc3[nH]c(-c4cnc5ncnn5c4)c(C(C)C)c3c2)CC1 : > 7.00
Cc1cc2cc(-c3[nH]c4ccc(C5CCN(C(=O)CN(C)C)CC5)cc4c3C(C)C)cc(C)n2n1 : > 7.00
CC(C)c1c(-c2nc3ccnn3cc2F)[nH]c2ccc(C3CCNCC3)cc12 : > 7.00

Now for another entry.
Exercise: Look up and report measured pIC50 (human TLR7 (Homo sapiens)) for the following compound: `CC(C)c1c(-c2ccc(Cl)c3[nH]ncc23)[nH]c2ccc(C3CCN(C(=O)CN(C)C)CC3)cc12`
Key: 6.00 to 7.00

* * *

Listed below: IC50 values for each entry.
Experimental System: human TLR7 (Homo sapiens, UniProt Q9NYK1)
Sequence (Q9NYK1 27-1049): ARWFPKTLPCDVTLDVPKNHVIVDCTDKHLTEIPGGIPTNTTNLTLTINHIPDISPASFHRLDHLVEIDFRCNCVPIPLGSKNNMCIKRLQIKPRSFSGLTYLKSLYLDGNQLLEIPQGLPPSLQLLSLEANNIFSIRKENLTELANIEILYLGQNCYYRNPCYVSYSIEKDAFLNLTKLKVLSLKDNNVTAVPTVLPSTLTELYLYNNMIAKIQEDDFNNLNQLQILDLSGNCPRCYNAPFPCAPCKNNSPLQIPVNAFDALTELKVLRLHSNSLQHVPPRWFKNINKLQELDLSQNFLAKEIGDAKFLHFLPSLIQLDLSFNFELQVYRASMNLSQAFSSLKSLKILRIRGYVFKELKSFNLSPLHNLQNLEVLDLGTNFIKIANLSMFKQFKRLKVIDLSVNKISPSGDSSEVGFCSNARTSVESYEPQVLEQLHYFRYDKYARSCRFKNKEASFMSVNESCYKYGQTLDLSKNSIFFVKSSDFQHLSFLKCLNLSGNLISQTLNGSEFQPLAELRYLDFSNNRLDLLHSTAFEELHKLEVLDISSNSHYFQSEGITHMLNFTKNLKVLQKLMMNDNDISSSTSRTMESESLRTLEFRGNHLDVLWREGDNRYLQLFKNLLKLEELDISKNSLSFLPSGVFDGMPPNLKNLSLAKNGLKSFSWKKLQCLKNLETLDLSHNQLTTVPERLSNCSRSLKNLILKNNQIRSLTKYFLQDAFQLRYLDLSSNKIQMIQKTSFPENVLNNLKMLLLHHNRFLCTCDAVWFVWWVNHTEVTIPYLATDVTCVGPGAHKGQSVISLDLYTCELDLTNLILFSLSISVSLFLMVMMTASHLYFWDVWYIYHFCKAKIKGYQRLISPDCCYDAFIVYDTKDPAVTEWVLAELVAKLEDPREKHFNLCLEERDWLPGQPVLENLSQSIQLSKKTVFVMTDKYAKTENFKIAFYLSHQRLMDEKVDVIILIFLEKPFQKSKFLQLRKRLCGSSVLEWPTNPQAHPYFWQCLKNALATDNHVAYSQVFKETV
Procedure Details: TLR7 inhibition reporter assay (HEK-Blue cells, SEAP reporter, gardiquimod stimulation)
Details: HEK-Blue cells overexpressing human TLR7, SEAP reporter, gardiquimod 7.5 μM

Solved cases below.
Cc1cn2cc(-c3[nH]c4ccc(C5CCNCC5)cc4c3C(C)C)cc(C(F)(F)F)c2n1 : < 100 nM
CC(C)c1c(-c2cn(C)c3ncccc23)[nH]c2ccc(C3CCN(CCS(N)(=O)=O)CC3)cc12 : < 100 nM
CC(C)c1c(-c2ccc3cnnn3c2)[nH]c2ccc(C3CCN(C4CCOCC4)CC3)cc12 : 100 to 1000 nM
CC(C)c1c(-c2ccn3nccc3c2)[nH]c2ccc(C3CCN(C(=O)CN(C)C)CC3)cc12 : < 100 nM

Exercise: State its IC50: `CC(C)c1c(-c2ccc3nc(N)cn3c2)[nH]c2ccc(C3CCNCC3)cc12`
Key: 100 to 1000 nM

Exercise: State its IC50: `Cc1cc(-c2[nH]c3ccc(C4CCN(C(=O)CN5CCCCC5)CC4)cc3c2C(C)C)cn2nnnc12`
Key: < 100 nM

Exercise: State its IC50: `CNC(=O)CN1CCC(c2ccc3[nH]c(-c4ccc(C)n5nc(C)nc45)c(C(C)C)c3c2)CC1`
Key: 1000 to 50000 nM

Exercise: State its IC50: `Cc1cc(-c2[nH]c3ccc(C4CCN(Cc5ncn(C)n5)CC4)cc3c2C(C)C)cn2nnnc12`
Key: < 100 nM

Each recorded value in this set is attributed to patent US11739098B2.
